tested on: SK-MES-1; assay: relative viability (nuclei count vs DMSO), 5 days (fraction); higher = more cells survive; settings: first compound 2.53 µM
Hi! Could you tag entries with relative viability below 0.8 as y, and those at or above as n? Much appreciated.

[
  {
    "compound": "C=C1C(=O)O[C@@H](CCCCCCCC)[C@@H]1C(=O)O [C-75] + Cc1cc(Nc2cc(N3CCN(C)CC3)nc(Sc3ccc(NC(=O)C4CC4)cc3)n2)n[nH]1 [Tozasertib] (partner 0.1 µM)",
    "groupLabel": "n"
  },
  {
    "compound": "Oc1nc(-c2ccc(C(F)(F)F)cc2)nc2c1CSCC2 [XAV939] + O=C(c1cc(Cc2n[nH]c(=O)c3ccccc23)ccc1F)N1CCN(C(=O)C2CC2)CC1 [Olaparib] (partner 8 µM)",
    "groupLabel": "y"
  },
  {
    "compound": "Oc1nc(-c2ccc(C(F)(F)F)cc2)nc2c1CSCC2 [XAV939] + CCNC(=O)c1noc(-c2cc(C(C)C)c(O)cc2O)c1-c1ccc(CN2CCOCC2)cc1 [Luminespib] (partner 0.01 µM)",
    "groupLabel": "y"
  },
  {
    "compound": "C=C1C(=O)O[C@@H](CCCCCCCC)[C@@H]1C(=O)O [C-75] + Cc1nc(NC(=O)N2CCC[C@H]2C(N)=O)sc1-c1ccnc(C(C)(C)C(F)(F)F)c1 [Alpelisib] (partner 2 µM)",
    "groupLabel": "n"
  }
]

---

tested on: NCI-H647; assay: relative viability (nuclei count vs DMSO), 5 days (fraction); higher = more cells survive; details: first compound 0.005 µM
assayMetric: relative viability

[
  {
    "compound": "CC1(C)CCC(c2ccc(Cl)cc2)=C(CN2CCN(c3ccc(C(=O)NS(=O)(=O)c4ccc(N[C@H](CCN5CCOCC5)CSc5ccccc5)c(S(=O)(=O)C(F)(F)F)c4)cc3)CC2)C1 [Navitoclax] + O=C(CCCCCCC(=O)Nc1ccccc1)NO [Vorinostat] (partner 1 µM)",
    "assayMetric": "relative viability",
    "recordedValue": 0.536
  },
  {
    "compound": "CC1(C)CCC(c2ccc(Cl)cc2)=C(CN2CCN(c3ccc(C(=O)NS(=O)(=O)c4ccc(N[C@H](CCN5CCOCC5)CSc5ccccc5)c(S(=O)(=O)C(F)(F)F)c4)cc3)CC2)C1 [Navitoclax] + C[C@@H](Oc1cc(-c2cnn(C3CCNCC3)c2)cnc1N)c1c(Cl)ccc(F)c1Cl [Crizotinib] (partner 1 µM)",
    "assayMetric": "relative viability",
    "recordedValue": 1.16
  },
  {
    "compound": "CC1(C)CCC(c2ccc(Cl)cc2)=C(CN2CCN(c3ccc(C(=O)NS(=O)(=O)c4ccc(N[C@H](CCN5CCOCC5)CSc5ccccc5)c(S(=O)(=O)C(F)(F)F)c4)cc3)CC2)C1 [Navitoclax] + Nc1nc2[nH]cc(CCc3ccc(C(=O)N[C@@H](CCC(=O)O)C(=O)O)cc3)c2c(=O)[nH]1 [Pemetrexed] (partner 0.2 µM)",
    "assayMetric": "relative viability",
    "recordedValue": 0.166
  }
]

---

test system: CAL-12T; experiment: relative viability (nuclei count vs DMSO), 5 days (fraction); higher = more cells survive; details: first compound 0.01581 µM
Reported relative viability values for the following compounds.

[
  {
    "compound": "CC1(C)CCC(c2ccc(Cl)cc2)=C(CN2CCN(c3ccc(C(=O)NS(=O)(=O)c4ccc(N[C@H](CCN5CCOCC5)CSc5ccccc5)c(S(=O)(=O)C(F)(F)F)c4)cc3)CC2)C1 [Navitoclax] + Cc1cc(Nc2cc(N3CCN(C)CC3)nc(Sc3ccc(NC(=O)C4CC4)cc3)n2)n[nH]1 [Tozasertib] (partner 0.1 µM)",
    "relative viability": 0.354
  },
  {
    "compound": "CC1(C)CCC(c2ccc(Cl)cc2)=C(CN2CCN(c3ccc(C(=O)NS(=O)(=O)c4ccc(N[C@H](CCN5CCOCC5)CSc5ccccc5)c(S(=O)(=O)C(F)(F)F)c4)cc3)CC2)C1 [Navitoclax] + Nc1nc2[nH]cc(CCc3ccc(C(=O)N[C@@H](CCC(=O)O)C(=O)O)cc3)c2c(=O)[nH]1 [Pemetrexed] (partner 0.2 µM)",
    "relative viability": 1.34
  },
  {
    "compound": "CC1(C)CCC(c2ccc(Cl)cc2)=C(CN2CCN(c3ccc(C(=O)NS(=O)(=O)c4ccc(N[C@H](CCN5CCOCC5)CSc5ccccc5)c(S(=O)(=O)C(F)(F)F)c4)cc3)CC2)C1 [Navitoclax] + NC(=O)Nc1cc(-c2cccc(F)c2)sc1C(=O)N[C@H]1CCCNC1 [AZD7762] (partner 0.2 µM)",
    "relative viability": 0.593
  },
  {
    "compound": "CC1(C)CCC(c2ccc(Cl)cc2)=C(CN2CCN(c3ccc(C(=O)NS(=O)(=O)c4ccc(N[C@H](CCN5CCOCC5)CSc5ccccc5)c(S(=O)(=O)C(F)(F)F)c4)cc3)CC2)C1 [Navitoclax] + CS(=O)(=O)CCNCc1ccc(-c2ccc3ncnc(Nc4ccc(OCc5cccc(F)c5)c(Cl)c4)c3c2)o1 [Lapatinib] (partner 2 µM)",
    "relative viability": 0.504
  },
  {
    "compound": "CC1(C)CCC(c2ccc(Cl)cc2)=C(CN2CCN(c3ccc(C(=O)NS(=O)(=O)c4ccc(N[C@H](CCN5CCOCC5)CSc5ccccc5)c(S(=O)(=O)C(F)(F)F)c4)cc3)CC2)C1 [Navitoclax] + O=C(CCCCCCC(=O)Nc1ccccc1)NO [Vorinostat] (partner 1 µM)",
    "relative viability": 0.825
  },
  {
    "compound": "CC1(C)CCC(c2ccc(Cl)cc2)=C(CN2CCN(c3ccc(C(=O)NS(=O)(=O)c4ccc(N[C@H](CCN5CCOCC5)CSc5ccccc5)c(S(=O)(=O)C(F)(F)F)c4)cc3)CC2)C1 [Navitoclax] + C[C@@H](Oc1cc(-c2cnn(C3CCNCC3)c2)cnc1N)c1c(Cl)ccc(F)c1Cl [Crizotinib] (partner 1 µM)",
    "relative viability": 0.653
  },
  {
    "compound": "CC1(C)CCC(c2ccc(Cl)cc2)=C(CN2CCN(c3ccc(C(=O)NS(=O)(=O)c4ccc(N[C@H](CCN5CCOCC5)CSc5ccccc5)c(S(=O)(=O)C(F)(F)F)c4)cc3)CC2)C1 [Navitoclax] + CC(=O)Nc1cccc(-n2c(=O)n(C3CC3)c(=O)c3c(Nc4ccc(I)cc4F)n(C)c(=O)c(C)c32)c1 [Trametinib] (partner 0.02 µM)",
    "relative viability": 0.373
  },
  {
    "compound": "CC1(C)CCC(c2ccc(Cl)cc2)=C(CN2CCN(c3ccc(C(=O)NS(=O)(=O)c4ccc(N[C@H](CCN5CCOCC5)CSc5ccccc5)c(S(=O)(=O)C(F)(F)F)c4)cc3)CC2)C1 [Navitoclax] + N=C(N)NC(=N)NCCc1ccccc1 [Phenformin] (partner 250 µM)",
    "relative viability": 0.655
  }
]
